target: ENPP1 on MDA-MB-231 cells (Homo sapiens (Human), UniProt P22413); assay: Assay 3: inhibition of ENPP1 hydrolysis of AMP p-nitrophenyl ester on MDA-MB-231 cells
Sequence (P22413 whole entry): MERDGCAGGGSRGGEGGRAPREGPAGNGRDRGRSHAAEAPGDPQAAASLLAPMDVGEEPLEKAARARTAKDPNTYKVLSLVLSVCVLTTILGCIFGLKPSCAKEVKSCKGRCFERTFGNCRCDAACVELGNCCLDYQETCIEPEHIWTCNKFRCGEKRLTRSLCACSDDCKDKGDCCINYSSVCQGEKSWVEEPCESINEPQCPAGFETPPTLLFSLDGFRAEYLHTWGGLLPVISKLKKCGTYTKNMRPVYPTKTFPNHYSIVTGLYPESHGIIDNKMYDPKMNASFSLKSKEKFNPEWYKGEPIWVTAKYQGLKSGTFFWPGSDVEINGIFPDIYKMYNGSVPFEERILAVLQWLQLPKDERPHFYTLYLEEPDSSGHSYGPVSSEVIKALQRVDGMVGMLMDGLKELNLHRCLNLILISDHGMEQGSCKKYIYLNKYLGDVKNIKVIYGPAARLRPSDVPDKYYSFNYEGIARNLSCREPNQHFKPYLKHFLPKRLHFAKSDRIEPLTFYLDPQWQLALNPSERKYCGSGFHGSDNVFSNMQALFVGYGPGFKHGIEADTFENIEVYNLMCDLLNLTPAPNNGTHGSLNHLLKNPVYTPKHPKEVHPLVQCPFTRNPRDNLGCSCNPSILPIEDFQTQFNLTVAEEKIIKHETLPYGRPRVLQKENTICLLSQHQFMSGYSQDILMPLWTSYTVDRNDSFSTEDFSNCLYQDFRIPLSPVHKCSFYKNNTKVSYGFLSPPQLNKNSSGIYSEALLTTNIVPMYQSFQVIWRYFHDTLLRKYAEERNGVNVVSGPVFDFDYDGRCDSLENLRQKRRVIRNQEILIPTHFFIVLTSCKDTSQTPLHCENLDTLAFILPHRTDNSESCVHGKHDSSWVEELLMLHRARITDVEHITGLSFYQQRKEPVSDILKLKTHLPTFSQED
MEASURED PROPERTY: Ki (nM)
Respond with the bare value in nM.

Examples with answers:
1. COc1cccc2c(N3CCC(CCS(C)(=N)=O)CC3)ncnc12 (stereo not drawn) [Compound 72]	430
2. COc1ccc2c(OCc3ccc(S(C)(=N)=O)cc3)ccnc2c1 (stereo not drawn) [Compound 75]	31
3. COc1cc2ncnc(N3CCC4(CCN(S(C)(=N)=O)CC4)C3)c2cc1OC (stereo not drawn) [Compound 207]	3.3
4. COc1cccc2c(N3CCC(CS(=N)(=O)C4CC4)CC3)c(C#N)cnc12 (stereo not drawn) [Compound 189]	0.45
5. COc1ccc2c(Oc3ccc(S(=N)(=O)C4CN(C(C)=O)C4)cc3)ccnc2c1 (stereo not drawn) [Compound 166]	230

So what does the record say about Ki for COc1ccc2c(OCc3cccc(S(C)(=N)=O)c3)ccnc2c1 (stereo not drawn) [Compound 133] ?
13

So what does the record say about Ki for COc1cc2ncnc(OCc3cccc(S(C)(=N)=O)c3)c2cc1OC (stereo not drawn) [Compound 173] ?
9.2

So what does the record say about Ki for COc1cc2nncc(N3CCC(CCS(C)(=N)=O)CC3)c2cc1OC (stereo not drawn) [Compound 151] ?
59

So what does the record say about Ki for COc1cc2ncc(F)c(N3CCC4(CC3)CCN(S(C)(=N)=O)C4)c2cc1OC (stereo not drawn) [Compound 227] ?
0.51

So what does the record say about Ki for COc1cccc2c(N3CCC4(C3)CN(S(C)(=N)=O)C4)ncnc12 (stereo not drawn) [Compound 223] ?
3.2
